Test system: MS2 coat protein
methodSummary: apparent KD of MS2 coat protein; higher = weaker reporter binding
conditionLabel: Eterna round: R107; input ligand: theophylline 20 uM
Answer each item with its documented apparent KD of MS2 coat protein.
Units required after the number.

seq	systemUnderTest	apparent KD of MS2 coat protein
GUAUAAAGAAAACUUUAUACAGUGGGUGAACGAGGACCGGUACGGCCGCCACUCGGACAUGAGGAUCACCCAUGUCCAUGUGAAA [AstrosExyTryA#9]	MS2 coat protein	0.0139 µM
GUCGCUGAGGGAAGGAGCGUGAAGACAUGAGGAUCACCCAUGUAGAGGCGCCGAAGGCGUUCGCAGGUAGGUCGCCCUCAGUGAC [#1 Same State - Arginine B Attempt #22 (HarryS)]	MS2 coat protein	0.0232 µM

Continue with the sequence presented below.
Q: Given the sequence GGAUAGGACACGGCCGCCACUGCGCUAGGAUACUAGAACAUUUCCUCACAUGAGGAUCACCCAUGUAGGACCGGGUGUCCUAUCG , what is its reported apparent KD of MS2 coat protein?
A: 0.0767 µM
